// data source = a melting point compilation (Tetko et al.; mined from patent text by program, amines drawn as free bases though some values may be those of a salt)

MEASURED_ENDPOINT: melting point

# annotated cases, reported melting point shown
MOLECULE	melting point
O=c1nc(-c2ccccn2)sc2ccc(OCCCc3ccccc3)cc12	170 °C
COc1cc(C(C)C)cc(OC)c1-c1nc(N)sc1CCC1CCCCC1	143 °C
COC(=O)C(C)=Cc1cc(N=C=S)ccc1Cl	60 to 61 °C
CCOC(=O)CC[C@H](NC(=O)c1ccc(Br)cc1)C(=O)OCC	82.5 to 83.5 °C
CCCCc1nn(-c2ccc([N+](=O)[O-])cc2C(F)(F)F)c(=O)n1Cc1ccc(-c2ccccc2S(=O)(=O)NC(C)(C)C)cc1	> 78 °C
O=c1c(O)c(-c2ccco2)oc2ccccc12	173 to 174 °C
COC(=O)CCCOc1cc(C(=O)O)ccc1NC(=O)NC(=O)c1cc(F)c(F)cc1Cl	227 °C
O=C1CCCc2ccn(-c3ccccc3)c21	66 to 68 °C
Oc1cccc(OCc2ccc3ccccc3n2)c1	151 to 153 °C
CS(=O)(=O)c1ccc(-c2cnn(-c3ccc(F)c(Cl)c3)c(=O)c2Cc2ccccc2)cc1	164 to 166 °C

# ---- query molecule ----
Prompt: Specify measured melting point for Nc1nc(-c2ccncc2)nc2c1c([N+](=O)[O-])nn2C1CCCC1 .
Completion: 239 to 241 °C
